// values below are reported Log 1/C
run.description: Diuretic activity was determined
Type: ADME, Urine

Guide cases for Log 1/C, answers given:
# smiles.string, endpoint.value
measured = [
    ("NS(=O)(=O)c1cccc([N+](=O)[O-])c1", 0.67),
    ("CNc1ccc(S(N)(=O)=O)cc1", -0.03),
]

For the next question, use this molecule.
Recorded Log 1/C (molecule `NS(=O)(=O)c1ccccc1[N+](=O)[O-]` ): -0.3

* * *

run.description: Diuretic activity was determined
Type: ADME, Urine
Field: class. Source value: Log 1/C. Ranges: category 1 = under 0.2, category 2 = from 0.2 up to 0.3, category 3 = 0.3 and over

Example cases with answers are listed next.
# molecule, assigned.label
rows = [
    ("NS(=O)(=O)c1ccc(Br)cc1", "category 2"),
    ("Nc1ccc(S(N)(=O)=O)cc1 [SULFANILAMIDE]", "category 1"),
    ("CC(=O)c1ccc(S(N)(=O)=O)cc1", "category 3"),
    ("NS(=O)(=O)c1cccc(Cl)c1", "category 2"),
    ("Cc1ccccc1S(N)(=O)=O", "category 1"),
]

For this molecule, which bin applies? `NS(=O)(=O)c1ccc(Cl)c([N+](=O)[O-])c1`
category 3

For this molecule, which bin applies? `NS(=O)(=O)c1ccc([N+](=O)[O-])c(C(F)(F)F)c1`
category 3

For this molecule, which bin applies? NS(=O)(=O)c1ccccc1 [BENZENESULFONAMIDE]
category 1

For this molecule, which bin applies? `NS(=O)(=O)c1ccccc1Cl`
category 1

For this molecule, which bin applies? `NS(=O)(=O)c1ccc(Cl)c(Cl)c1`
category 2

For this molecule, which bin applies? `Cc1cccc(S(N)(=O)=O)c1`
category 1

For this molecule, which bin applies? Cc1ccc(S(N)(=O)=O)cc1 [P-TOLUENESULFONAMIDE]
category 1

For this molecule, which bin applies? `N#Cc1ccc(S(N)(=O)=O)cc1`
category 3
